- Target Or System: T1, Human CD137 ECD (human)
- T1 construct: also called 4-1BB
- T1 sequence (chain, as listed by the source limits assumed): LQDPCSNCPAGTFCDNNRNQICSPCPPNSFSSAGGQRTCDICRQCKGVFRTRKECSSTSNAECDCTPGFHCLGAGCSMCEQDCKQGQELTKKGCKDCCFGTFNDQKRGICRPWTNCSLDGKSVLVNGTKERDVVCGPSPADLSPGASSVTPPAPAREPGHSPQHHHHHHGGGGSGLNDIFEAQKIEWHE
- Procedure Details: single mutant vs template dBBDu183H
Assign satisfied whenever fold change of affinity does not fall below 0.6 fold; assign not satisfied whenever it does.

- H183/L072 VH G26A (antibody, name in Kabat numbering, V domains shown) VH: QVQLVESGGGLVQPGRSLRLSCAASAFTFSNAWMHWVRQAPGKGLEWVAQIKDKGNAYAAYYAPSVKGRFTISRDDSKNSIYLQMNSLKTEDTAVYYCHYVHYASASTVLPAFGVDAWGQGTTVTVSS VL: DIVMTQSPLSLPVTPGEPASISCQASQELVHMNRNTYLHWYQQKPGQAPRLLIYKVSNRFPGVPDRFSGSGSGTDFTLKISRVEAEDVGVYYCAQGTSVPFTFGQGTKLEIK: not satisfied
- H183/L072 VH Y94P (antibody, name in Kabat numbering, V domains shown) VH: QVQLVESGGGLVQPGRSLRLSCAASGFTFSNAWMHWVRQAPGKGLEWVAQIKDKGNAYAAYYAPSVKGRFTISRDDSKNSIYLQMNSLKTEDTAVYYCHPVHYASASTVLPAFGVDAWGQGTTVTVSS VL: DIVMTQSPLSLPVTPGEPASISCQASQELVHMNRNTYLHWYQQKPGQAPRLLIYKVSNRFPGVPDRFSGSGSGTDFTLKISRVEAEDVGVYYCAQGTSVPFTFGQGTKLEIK: not satisfied
- H183/L072 VH F27M (antibody, name in Kabat numbering, V domains shown) VH: QVQLVESGGGLVQPGRSLRLSCAASGMTFSNAWMHWVRQAPGKGLEWVAQIKDKGNAYAAYYAPSVKGRFTISRDDSKNSIYLQMNSLKTEDTAVYYCHYVHYASASTVLPAFGVDAWGQGTTVTVSS VL: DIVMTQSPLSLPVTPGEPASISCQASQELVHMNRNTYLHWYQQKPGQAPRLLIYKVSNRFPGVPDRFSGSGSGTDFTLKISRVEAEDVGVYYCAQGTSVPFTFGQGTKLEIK: satisfied
- H183/L072 VH G65P (antibody, name in Kabat numbering, V domains shown) VH: QVQLVESGGGLVQPGRSLRLSCAASGFTFSNAWMHWVRQAPGKGLEWVAQIKDKGNAYAAYYAPSVKPRFTISRDDSKNSIYLQMNSLKTEDTAVYYCHYVHYASASTVLPAFGVDAWGQGTTVTVSS VL: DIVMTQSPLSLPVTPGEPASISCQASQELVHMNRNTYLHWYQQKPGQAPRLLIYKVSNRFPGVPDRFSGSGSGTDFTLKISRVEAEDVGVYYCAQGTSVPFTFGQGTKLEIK: satisfied
- H183/L072 VH M34Y (antibody, name in Kabat numbering, V domains shown) VH: QVQLVESGGGLVQPGRSLRLSCAASGFTFSNAWYHWVRQAPGKGLEWVAQIKDKGNAYAAYYAPSVKGRFTISRDDSKNSIYLQMNSLKTEDTAVYYCHYVHYASASTVLPAFGVDAWGQGTTVTVSS VL: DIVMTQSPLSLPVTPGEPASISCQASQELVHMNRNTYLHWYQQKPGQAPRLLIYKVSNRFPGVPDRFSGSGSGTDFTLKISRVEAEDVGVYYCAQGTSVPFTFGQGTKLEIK: not satisfied
- H183/L072 VH A32S (antibody, name in Kabat numbering, V domains shown) VH: QVQLVESGGGLVQPGRSLRLSCAASGFTFSNSWMHWVRQAPGKGLEWVAQIKDKGNAYAAYYAPSVKGRFTISRDDSKNSIYLQMNSLKTEDTAVYYCHYVHYASASTVLPAFGVDAWGQGTTVTVSS VL: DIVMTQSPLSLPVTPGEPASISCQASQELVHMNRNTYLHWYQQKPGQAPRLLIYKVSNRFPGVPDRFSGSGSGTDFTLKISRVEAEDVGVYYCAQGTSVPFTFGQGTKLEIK: satisfied
- H183/L072 VH A56E (antibody, name in Kabat numbering, V domains shown) VH: QVQLVESGGGLVQPGRSLRLSCAASGFTFSNAWMHWVRQAPGKGLEWVAQIKDKGNAYEAYYAPSVKGRFTISRDDSKNSIYLQMNSLKTEDTAVYYCHYVHYASASTVLPAFGVDAWGQGTTVTVSS VL: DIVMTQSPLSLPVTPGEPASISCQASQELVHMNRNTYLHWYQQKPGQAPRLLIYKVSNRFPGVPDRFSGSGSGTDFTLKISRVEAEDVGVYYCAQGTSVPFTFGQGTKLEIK: not satisfied
- H183/L072 VH V100cA (antibody, name in Kabat numbering, V domains shown) VH: QVQLVESGGGLVQPGRSLRLSCAASGFTFSNAWMHWVRQAPGKGLEWVAQIKDKGNAYAAYYAPSVKGRFTISRDDSKNSIYLQMNSLKTEDTAVYYCHYVHYASASTALPAFGVDAWGQGTTVTVSS VL: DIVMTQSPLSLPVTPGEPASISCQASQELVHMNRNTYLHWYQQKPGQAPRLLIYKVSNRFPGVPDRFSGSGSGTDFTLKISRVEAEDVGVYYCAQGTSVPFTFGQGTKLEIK: not satisfied
- H183/L072 VH D52aY (antibody, name in Kabat numbering, V domains shown) VH: QVQLVESGGGLVQPGRSLRLSCAASGFTFSNAWMHWVRQAPGKGLEWVAQIKYKGNAYAAYYAPSVKGRFTISRDDSKNSIYLQMNSLKTEDTAVYYCHYVHYASASTVLPAFGVDAWGQGTTVTVSS VL: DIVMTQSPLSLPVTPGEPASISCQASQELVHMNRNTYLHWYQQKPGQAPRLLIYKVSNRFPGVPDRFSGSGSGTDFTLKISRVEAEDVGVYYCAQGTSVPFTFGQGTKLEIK: not satisfied

Cited source: patent US20210388087A1
